Cited source for all entries: patent US20200131669A1

Could you please report measured Caco-2 for the items listed next?
# Test system: Caco-2 cells
# RUN DESCRIPTION: Caco-2 membrane permeability, improved method as used in the following Examples (96-well, 20 to 24 h preincubation)
# Type: in vitro ADME
# APPLIED CONDITIONS: human, Caco-2, 180 min
Starred links: 1 amine or outer side, 2 acyl side, 3 side chain; linkers in the order of their positions; H or OH if unused. Positions of bridges follow the written chain, without caps; N, C: chain ends. Non-standard residues stand in square brackets, D forms with d. Residues, ends and D or L forms follow the SMILES beside them. ξ: configuration not given here. *: point of attachment. X10 = O=C([C@H]1C[C@@H](N2CCC(F)(F)CC2)CN1[*:1])[*:2]; NMePhe(3-Cl) = CN[C@@H](Cc1cccc(Cl)c1)C(=O)O; hhPhe = N[C@@H](CCCc1ccccc1)C(=O)O; NMeF = CN[C@@H](Cc1ccccc1)C(=O)O; NMeI = CC[C@H](C)[C@H](NC)C(=O)O; NMeL = CN[C@@H](CC(C)C)C(=O)O; dNMeL = CN[C@H](CC(C)C)C(=O)O; Propyl(2R-OH) = C[C@@H](O)C*; NMeV = CN[C@H](C(=O)O)C(C)C; NMeA = CN[C@@H](C)C(=O)O; Piperidide = C1CCN(*)CC1; Bn = c1ccc(C*)cc1; ξS = NC(CO)C(=O)O; Sar = CNCC(=O)O; tBu = CC(C)(C)*
Give bare numbers, in cm/s.

Field: example entries. Status: answers known.
| COMPOUND | UNITS | Caco-2 |
| --- | --- | --- |
| CC(C)C[C@H]1C(=O)N[C@H](C(=O)N2CCCCC2)CC(=O)N[C@H](C)C(=O)N2C[C@H](N3CCC(F)(F)CC3)C[C@@H]2C(=O)N[C@@H](COC(C)(C)C)C(=O)N(C)[C@@H](CC(C)C)C(=O)N(C)[C@@H](CC(C)C)C(=O)N(C)[C@@H](CC(C)C)C(=O)N[C@@H]([C@@H](C)O)C(=O)N(C)[C@@H](Cc2ccccc2)C(=O)N[C@@H](Cc2ccccc2)C(=O)N1C [pd457] ([dA][X10]S(tBu)[NMeL][NMeL][NMeL]T[NMeF]F[NMeL]D-Piperidide; lactam N-11) | cm/s | 1.1e-06 |
| CC[C@H](C)[C@@H]1NC(=O)[C@H](Cc2ccccc2)N(C)C(=O)CN(C)C(=O)C[C@@H](C(=O)N2CCCCC2)NC(=O)[C@H]([C@@H](C)CC)N(C)C(=O)C(COCc2ccccc2)NC(=O)[C@H](CC(C)C)N(C)C(=O)[C@H](Cc2ccccc2)N(C)C(=O)CN(C)C(=O)[C@H]([C@@H](C)O)NC(=O)[C@H](CC(C)C)N(C)C1=O (stereo partly drawn) [pd178] ([Sar][NMeF]I[NMeL]T[Sar][NMeF][NMeL][ξS](Bn)[NMeI]D-Piperidide; lactam N-11) | cm/s | 2.5e-06 |
| CC[C@H](C)[C@H]1C(=O)N[C@@H]([C@@H](C)O)C(=O)N(C)CC(=O)N(C)[C@@H](CC(C)C)C(=O)N[C@H](C(=O)N2CCCCC2)CC(=O)N(C)[C@@H](C(C)C)C(=O)N[C@@H](COC[C@@H](C)O)C(=O)N(C)[C@H](CC(C)C)C(=O)N(C)[C@@H](Cc2cccc(Cl)c2)C(=O)N[C@@H](CC(C)C)C(=O)N(C)[C@@H](Cc2ccccc2)C(=O)N1C [pd491] ([NMeV]S(Propyl(2R-OH))[dNMeL][NMePhe(3-Cl)]L[NMeF][NMeI]T[Sar][NMeL]D-Piperidide; lactam N-11) | cm/s | 1.1e-06 |

Value sought: Caco-2, system Caco-2 cells, item CC(C)C[C@H]1C(=O)N[C@@H](COC(C)(C)C)C(=O)N(C)[C@@H](Cc2ccccc2)C(=O)N(C)[C@@H](C)C(=O)N[C@H](C(=O)N2CCCCC2)CC(=O)N[C@H](C(C)C)C(=O)N(C)[C@@H](Cc2ccccc2)C(=O)N[C@@H](CCCc2ccccc2)C(=O)N(C)[C@@H](CC(C)C)C(=O)N[C@@H]([C@@H](C)O)C(=O)N(C)CC(=O)N1C [pd363] ([dV][NMeF][hhPhe][NMeL]T[Sar][NMeL]S(tBu)[NMeF][NMeA]D-Piperidide; lactam N-11) . Result: 1.1e-06

* * *

# RUN DESCRIPTION: Caco-2 membrane permeability, improved method as used in the following Examples (96-well, 20 to 24 h preincubation)
# Assay type: in vitro ADME
# APPLIED CONDITIONS: human; Papp, Caco-2 membrane permeability, improved method; read-out: Caco-2
Positions of bridges follow the written chain, without caps; N, C: chain ends. Non-standard residues stand in square brackets, D forms with d. Residues, ends and D or L forms follow the SMILES beside them. *: point of attachment. NMeF = CN[C@@H](Cc1ccccc1)C(=O)O; hPhe = N[C@@H](CCc1ccccc1)C(=O)O; NMeL = CN[C@@H](CC(C)C)C(=O)O; NMeV = CN[C@H](C(=O)O)C(C)C; NMeA = CN[C@@H](C)C(=O)O; Piperidide = C1CCN(*)CC1; Bn = c1ccc(C*)cc1; Sar = CNCC(=O)O
Please go through the items and note down their Papp A→B at 180 min.

| MOLECULE | Papp A→B at 180 min |
| --- | --- |
| CC(C)C[C@H]1C(=O)N[C@@H]([C@@H](C)O)C(=O)N(C)CC(=O)N(C)[C@@H](Cc2ccccc2)C(=O)N(C)[C@@H](CC(C)C)C(=O)N[C@@H](C(C)C)C(=O)N(C)[C@@H](CC(C)C)C(=O)N[C@H](C(=O)N2CCCCC2)CC(=O)N(C)CC(=O)N(C)[C@@H](C(C)C)C(=O)N[C@@H](CCc2ccccc2)C(=O)N1C [pd319] ([Sar][NMeV][hPhe][NMeL]T[Sar][NMeF][NMeL]V[NMeL]D-Piperidide; lactam N-11) | 2.2 ×10⁻⁶ cm/s |

# next molecule below
The value of Papp A→B at 180 min measured for the molecule CC(C)C[C@@H]1NC(=O)[C@H](C)N(C)C(=O)C[C@@H](C(=O)N2CCCCC2)NC(=O)[C@H](CC(C)C)N(C)C(=O)CN(C)C(=O)[C@H]([C@@H](C)O)NC(=O)[C@H](C)N(C)C(=O)[C@H](Cc2ccccc2)N(C)C(=O)[C@H](COCc2ccccc2)NC(=O)[C@H](Cc2ccccc2)N(C)C(=O)[C@H](CC(C)C)N(C)C1=O [pd368] ([NMeA]L[NMeL][NMeF]S(Bn)[NMeF][NMeA]T[Sar][NMeL]D-Piperidide; lactam N-11) turned out to be 2 ×10⁻⁶ cm/s

* * *

Provide the recorded Papp A→B at 180 min for the entries that follow.
# RUN DESCRIPTION: Caco-2 membrane permeability, improved method as used in the following Examples (96-well, 20 to 24 h preincubation)
# Assay type: in vitro ADME
# APPLIED CONDITIONS: human, Caco-2, Caco-2 (cm/sec)
Starred links: 1 amine or outer side, 2 acyl side, 3 side chain; linkers in the order of their positions; H or OH if unused. Positions of bridges follow the written chain, without caps; N, C: chain ends. Non-standard residues stand in square brackets, D forms with d. Residues, ends and D or L forms follow the SMILES beside them. ξ: configuration not given here. *: point of attachment. X1 = CC(CC(=O)[*:2])C(=O)[C@@H](N[*:1])[C@@H](C)O; NMePhe(3-Cl) = CN[C@@H](Cc1cccc(Cl)c1)C(=O)O; NMeW = CN[C@@H](Cc1c[nH]c2ccccc12)C(=O)O; NMeF = CN[C@@H](Cc1ccccc1)C(=O)O; NMeD = CN[C@@H](CC(=O)O)C(=O)O; NMeL = CN[C@@H](CC(C)C)C(=O)O; ξNMeF = CNC(Cc1ccccc1)C(=O)O; NMeV = CN[C@H](C(=O)O)C(C)C; NMeA = CN[C@@H](C)C(=O)O; Piperidide = C1CCN(*)CC1; NPrGly = CCCNCC(=O)O; X2 = Fc1cncc(C*)c1; Sar = CNCC(=O)O; tBu = CC(C)(C)*
One number for each entry, in ×10⁻⁶ cm/s.

Answered examples (2):
| COMPOUND | UNITS | ENDPOINT RESULT |
| --- | --- | --- |
| CCCN1CC(=O)N(C)[C@@H](CC(C)C)C(=O)N[C@@H](COC(C)(C)C)C(=O)N(C)[C@@H](Cc2ccccc2)C(=O)N(C)[C@@H](Cc2ccccc2)C(=O)N[C@H](C(=O)N2CCCCC2)CC(=O)N[C@H](C)C(=O)N(C)[C@@H](Cc2ccccc2)C(=O)N[C@@H](C(C)C)C(=O)N(C)[C@@H](CC(C)C)C(=O)N[C@@H]([C@@H](C)O)C1=O [pd194] ([dA][NMeF]V[NMeL]T[NPrGly][NMeL]S(tBu)[NMeF][NMeF]D-Piperidide; lactam N-11) | ×10⁻⁶ cm/s | 5.3 |
| CC(C)C[C@H]1C(=O)N[C@@H]([C@@H](C)O)C(=O)C(C)CC(=O)N(C)[C@@H](C(C)C)C(=O)N[C@@H](Cc2ccccc2)C(=O)N(C)[C@@H](Cc2cccc(Cl)c2)C(=O)N(C)[C@@H](CC(C)C)C(=O)N(C)[C@H](C(=O)N2CCCCC2)CC(=O)N2CCC[C@H]2C(=O)N[C@@H](Cc2ccccc2)C(=O)N[C@@H](COC(C)(C)C)C(=O)N1C (stereo partly shown) [pd162] (PFS(tBu)[NMeL][X1][NMeV]F[NMePhe(3-Cl)][NMeL][NMeD]-Piperidide; lactam N-10) | ×10⁻⁶ cm/s | 1.2 |

Hey, quick one: what's Papp A→B at 180 min for each of these?
1. CC(C)C[C@H]1C(=O)N(C)[C@@H](Cc2c[nH]c3ccccc23)C(=O)N(C)[C@@H](Cc2ccccc2)C(=O)N[C@@H]([C@@H](C)O)C(=O)N(C)[C@@H](C)C(=O)N(C)[C@@H](CC(C)C)C(=O)N[C@H](C(=O)N2CCCCC2)CC(=O)N(C)[C@@H](C)C(=O)N(C)[C@@H](CC(C)C)C(=O)N(C)[C@@H](CC(C)C)C(=O)N[C@@H](C(C)C)C(=O)N1C [pd109] ([NMeA][NMeL][NMeL]V[NMeL][NMeW][NMeF]T[NMeA][NMeL]D-Piperidide; lactam N-11)
2. CC(C)C[C@H]1C(=O)N[C@@H](COC(C)(C)C)C(=O)N(C)[C@@H](Cc2ccccc2)C(=O)N(C)[C@@H](C(C)C)C(=O)N[C@H](C(=O)N2CCCCC2)CC(=O)N[C@H](C(C)C)C(=O)N(C)C(Cc2ccccc2)C(=O)N[C@@H](COCc2cncc(F)c2)C(=O)N(C)[C@@H](CC(C)C)C(=O)N[C@@H]([C@@H](C)O)C(=O)N(C)CC(=O)N1C (stereo partly drawn) [pd180] ([dV][ξNMeF]S(X2)[NMeL]T[Sar][NMeL]S(tBu)[NMeF][NMeV]D-Piperidide; lactam N-11)

Given back:
[0.0092, 2.4]
